Target: CFTR G551D mutant (Homo sapiens, UniProt P13569, G551D)
Construct: expressed in transfected cells; host or cells: HEK293 cells, reverse transfection with plasmids
Sequence (P13569 whole entry G551D): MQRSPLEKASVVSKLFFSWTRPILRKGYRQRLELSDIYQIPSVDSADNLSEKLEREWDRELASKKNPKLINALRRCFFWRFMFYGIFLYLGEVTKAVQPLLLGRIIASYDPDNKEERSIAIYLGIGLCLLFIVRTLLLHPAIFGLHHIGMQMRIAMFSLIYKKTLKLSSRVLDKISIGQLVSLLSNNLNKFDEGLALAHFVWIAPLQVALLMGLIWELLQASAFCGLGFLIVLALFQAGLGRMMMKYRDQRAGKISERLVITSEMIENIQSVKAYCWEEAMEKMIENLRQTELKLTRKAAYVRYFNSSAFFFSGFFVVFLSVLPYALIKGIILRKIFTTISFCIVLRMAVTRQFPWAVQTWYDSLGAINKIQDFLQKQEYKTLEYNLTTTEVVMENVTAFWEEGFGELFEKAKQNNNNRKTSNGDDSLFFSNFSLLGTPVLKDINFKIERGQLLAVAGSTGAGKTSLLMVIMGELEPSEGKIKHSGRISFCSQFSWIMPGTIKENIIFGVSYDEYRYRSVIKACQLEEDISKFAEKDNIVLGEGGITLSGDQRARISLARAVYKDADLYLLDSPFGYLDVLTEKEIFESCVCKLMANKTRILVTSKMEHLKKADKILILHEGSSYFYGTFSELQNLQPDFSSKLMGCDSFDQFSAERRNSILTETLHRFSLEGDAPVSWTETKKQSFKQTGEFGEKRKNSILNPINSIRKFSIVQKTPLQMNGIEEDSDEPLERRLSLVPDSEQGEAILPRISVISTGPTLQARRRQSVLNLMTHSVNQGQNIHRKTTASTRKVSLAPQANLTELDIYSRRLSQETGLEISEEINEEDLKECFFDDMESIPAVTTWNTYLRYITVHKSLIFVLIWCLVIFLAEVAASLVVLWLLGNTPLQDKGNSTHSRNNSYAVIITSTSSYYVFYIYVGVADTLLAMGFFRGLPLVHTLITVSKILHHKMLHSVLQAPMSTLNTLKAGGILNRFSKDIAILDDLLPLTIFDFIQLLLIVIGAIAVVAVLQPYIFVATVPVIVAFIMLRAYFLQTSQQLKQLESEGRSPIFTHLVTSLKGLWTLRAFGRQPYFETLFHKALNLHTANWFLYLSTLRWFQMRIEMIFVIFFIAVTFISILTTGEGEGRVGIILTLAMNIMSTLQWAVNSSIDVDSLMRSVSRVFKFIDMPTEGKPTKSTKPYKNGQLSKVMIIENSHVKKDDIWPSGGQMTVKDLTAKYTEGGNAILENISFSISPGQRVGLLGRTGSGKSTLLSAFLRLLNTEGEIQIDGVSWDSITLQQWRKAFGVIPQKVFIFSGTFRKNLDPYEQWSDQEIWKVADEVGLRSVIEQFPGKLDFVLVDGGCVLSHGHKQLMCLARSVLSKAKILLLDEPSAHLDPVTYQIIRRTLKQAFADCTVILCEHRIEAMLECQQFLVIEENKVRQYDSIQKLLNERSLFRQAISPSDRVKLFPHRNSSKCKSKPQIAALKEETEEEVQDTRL
Assay: YFP-halide influx assay for the CFTR-G551D mutation (HEK293 cells)
Type: cell-based
Settings: forskolin 10.67 μM
Recorded Endpoint: % Activation (%)
Give bare numbers, in %.

CO[C@H]1C[C@H](NC(=O)c2ncc(S(=O)(=O)c3ccc(OC(F)(F)F)cc3)cc2N)C1	54.0
Nc1cc(S(=O)(=O)N2CCC(F)(F)C2)cnc1C(=O)NCC(O)C(F)(F)F (stereo not shown)	49.9
Nc1cc(S(=O)(=O)c2ccc(OC(F)(F)F)cc2)cnc1C(=O)N[C@@H]1COC[C@H]1O (racemic)	65.0

Okay, here is my list. What is % Activation for each of these?
1. CC(C)(CCO)CNC(=O)c1ncc(S(=O)(=O)c2ccc(OC(F)(F)F)cc2)cc1N
2. Nc1cc(S(=O)(=O)c2ccc(OC(F)(F)F)cc2)cnc1C(=O)N1CC2(CCCOC2)C1

1. 70.2
2. 88.6

Okay, here is my list. What is % Activation for each of these?
1. Nc1cc(S(=O)(=O)c2ccc(OC(F)(F)F)cc2)cnc1C(=O)N[C@@H]1CCCC[C@H]1O (racemic)
2. CC(C)(O)C1CN(C(=O)c2ncc(S(=O)(=O)c3ccc(OC(F)(F)F)cc3F)cc2N)C1

82.7
50.3

* * *

Target: CFTR G551D mutant (Homo sapiens, UniProt P13569, G551D)
Construct: expressed in transfected cells; host or cells: HEK293 cells, reverse transfection with plasmids
Test: YFP-halide influx assay for the CFTR-G551D mutation (HEK293 cells)
Format: cell-based
Details: forskolin 10.67 μM
Recorded Endpoint: % Activation (%)
Give bare numbers, in %.

Nc1cc(S(=O)(=O)N2CCCC(F)(F)C2)cnc1C(=O)NCC(O)C(F)(F)F (centres unmarked)	42.0
CN(C1CC1)S(=O)(=O)c1cnc(C(=O)NCC(O)C(F)(F)F)c(N)c1 (centres unmarked)	43.4
Nc1cc(S(=O)(=O)c2ccc(OC(F)(F)F)cc2)cnc1C(=O)N[C@@H]1CCOc2ccccc21	53.9
Nc1cc(S(=O)(=O)c2ccc(OC(F)(F)F)cc2)cnc1C(=O)N1CC(OCC(F)F)C1	64.6
CC(C)OCC(O)CNC(=O)c1ncc(S(=O)(=O)c2ccc(OC(F)(F)F)cc2)cc1N (centres unmarked)	86.8

Okay, here is my list. What is % Activation for each of these?
1. Nc1cc(S(=O)(=O)c2ccc(C(F)(F)F)cc2)cnc1C(=O)N1CCC[C@H]1CO
2. Nc1cc(S(=O)(=O)c2ccc(OC(F)(F)F)cc2)cnc1C(=O)N1CC2(CCOC2)C1
3. Nc1cc(S(=O)(=O)c2ccc(OC(F)(F)F)cc2)cnc1C(=O)NCC1(O)CCOC1 (centres unmarked)

1: 1.4; 2: 84.1; 3: 51.9

* * *

Biological target: CFTR G551D mutant (Homo sapiens, UniProt P13569, G551D)
Construct: expressed in transfected cells; host or cells: HEK293 cells, reverse transfection with plasmids
Experiment: YFP-halide influx assay for the CFTR-G551D mutation (HEK293 cells)
Format: cell-based
Conditions: forskolin 10.67 μM
Recorded Endpoint: % Activation (%)
Numbers only, in %.

CN1CC[C@@H](NC(=O)c2ncc(S(=O)(=O)c3ccc(OC(F)(F)F)cc3)cc2N)C1 [Compound 208]	20.0
CC(C)(CO)CNC(=O)c1ncc(S(=O)(=O)c2ccc(OC(F)(F)F)cc2)cc1N [Compound 18]	79.2
CCC(CO)NC(=O)c1ncc(S(=O)(=O)c2ccc(OC(F)(F)F)cc2)cc1N (stereo not shown) [Compound 12]	43.8

Okay, here is my list. What is % Activation for each of these?
1. CC(C)OCC(O)CNC(=O)c1ncc(S(=O)(=O)c2ccc(C(F)(F)F)cc2F)cc1N (stereo not shown) [Compound 133]
2. CC(C)NC(=O)CNC(=O)c1ncc(S(=O)(=O)c2ccc(OC(F)(F)F)cc2)cc1N [Compound 57]
3. Nc1cc(S(=O)(=O)c2ccc(OC(F)(F)F)cc2)cnc1C(=O)N1CC(O)(C(F)(F)F)C1 [Compound 79]
4. CC(C)OC[C@@H](O)CNC(=O)c1ncc(S(=O)(=O)c2ccc(C(F)(F)F)cc2)cc1N [Compound 243]
5. Nc1cc(S(=O)(=O)c2ccc(OC(F)(F)F)cc2)cnc1C(=O)NCC(O)C(F)F (stereo not shown) [Compound 279]
6. Nc1cc(S(=O)(=O)c2ccc(OC(F)(F)F)cc2)cnc1C(=O)N[C@@H]1COCC[C@@H]1O (racemic) [Compound 33]
7. CC1(C)CN(C(=O)c2ncc(S(=O)(=O)c3ccc(C(F)(F)F)cc3)cc2N)C1 [Compound 110]

1. 84.2
2. 51.8
3. 48.9
4. 99.0
5. 57.2
6. 62.3
7. 83.6
